Tested on: Francisella tularensis subsp. tularensis SCHU S4
Assay remarks: Antibacterial activity against Francisella tularensis SCHU S4 expressing FabI assessed as growth inhibition after 42 to 48 hrs by microdilution method
Type: functional
MIC listing for selected compounds.
Endpoint label: MIC (µM)

> print(dat)
                            smiles.notation  endpoint.label  reported.value
1  O=C(C(=O)N1CC=C(c2ccccc2)CC1)c1c[nH]c2ccccc12             MIC              39
2       O=C(COc1ccccc1)NCCSc1c[nH]c2ccccc12             MIC              67

* * *

Target or system: Enoyl-[acyl-carrier-protein] reductase [NADH] (Francisella tularensis subsp. tularensis (strain SCHU S4 / Schu 4))
Sequence (Q5NGQ3 whole entry): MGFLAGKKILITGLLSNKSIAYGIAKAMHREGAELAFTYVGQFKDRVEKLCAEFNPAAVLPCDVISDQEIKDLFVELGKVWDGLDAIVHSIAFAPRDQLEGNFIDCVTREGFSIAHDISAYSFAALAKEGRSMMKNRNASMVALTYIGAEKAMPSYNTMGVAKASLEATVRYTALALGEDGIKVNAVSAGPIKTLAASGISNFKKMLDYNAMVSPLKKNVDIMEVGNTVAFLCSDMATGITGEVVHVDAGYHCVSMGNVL
IC50 listing for selected compounds.
Endpoint label: IC50 (µM)

> print(dat)
                                   compound  endpoint.label  reported.value
1  O=C(CC1CCCCC1)N1CCC(c2nc(-c3ccc(S(=O)(=O)N4CCCC4)cc3)no2)CC1            IC50               8
2  Oc1cc(Cl)ccc1Oc1ccc(Cl)cc1Cl [TRICLOSAN]            IC50             1.3
3       O=C(COc1ccccc1)NCCSc1c[nH]c2ccccc12            IC50              20
4  O=C(C(=O)N1CC=C(c2ccccc2)CC1)c1c[nH]c2ccccc12            IC50               3

* * *

Target or system: Enoyl-[acyl-carrier-protein] reductase [NADH] (Francisella tularensis subsp. tularensis (strain SCHU S4 / Schu 4), UniProt Q5NGQ3)
pIC50: −log10 of the molar value.
Endpoint label: pIC50

> print(dat)
                                   compound  reported.value
1             NC(=O)c1ccc(Oc2ccccc2O)c(F)c1            5.22
2  Nc1ccn([C@@H]2O[C@H](CO)[C@@H](O)[C@@H]2O)c(=O)n1 [CYTARABINE]            4.23
3          CN(Cc1ccccc1N)C(=O)c1cc2ccccc2o1            4.35
4                N#Cc1ccc(Oc2ccccc2O)c(F)c1            4.96
5  CN(Cc1ccc(C(C)(C)C)cc1)Cc1cccc2ccccc12 [BUTENAFINE]            4.12
6  O=c1oc2ccccc2c(O)c1Cc1c(O)c2ccccc2oc1=O [DICUMAROL]            4.33
7  CCc1ccc(CCOc2ccc(CC3SC(=O)NC3=O)cc2)nc1 (stereo not drawn) [PIOGLITAZONE]            4.10
8  O=C(C(=O)N1CC=C(c2ccccc2)CC1)c1c[nH]c2ccccc12            4.92

This collection of values is drawn from ChEMBL document CHEMBL2396561.
